These data points were gathered from the domain aggregation screens of Martell et al. (2025).

measurement protocol: soluble fraction after stress (log2 fold change); higher = more stays soluble; pooled small domains, quantitative proteomics
applied conditions: stress: 50 degC
The entries below come with measured soluble fraction (log2) values attached.
A bare number is all that is needed in reply.

Example entries begin here.
HMNMGKRFKELRKERKFTQQQLADRIGLAPSAISSYESGARYPSYDVLIKYSKIFHVTTDYLLG: -2.81
HMQVSDVTTIRALVEEVLSSSPQQLAQYRAGKLSLKGYFVGQVMKKGKGQLNAAAVNNLLDEIL: -0.185
HMLVDWNYLEGKRGVTTTPLTPSGKARFGDDVVNVLSDGVLVSTGTPVRVLQVLGNRVLVEPLDG: 0.0957

From here, focus on the item given below.
Q: Quick one: give measured soluble fraction (log2) for `HMKTIQVGSTVRVNQGAKTYSGGGLASFVYKRNHKVSQLQGDRAVITYEGTVVAAVHVSDLSLIH`
A: -0.062

---

measurement protocol: soluble fraction after stress (log2 fold change); higher = more stays soluble; pooled small domains, quantitative proteomics
applied conditions: stress: 50 degC
Please note: satisfied applies when soluble fraction (log2) is -0.4 or greater, and not satisfied applies otherwise.

Here's what some known entries look like.
HMFQTAADVAYRIISQKILDGEFPPGMKLSRRKMAEVTSVSVIPVIEALKKLEEDGLVESKPQWGSFVTI: not satisfied
HMTVTLTTLRNGSTGAQVKTLQRLLSAMDYYNGETDGKFGISTAAAVKAFQRAKRLTVDGIVGKNTWTALL: not satisfied
HMSSDDEAFKRELVGLIPHLRAFARTLTGDPTAADDLAQDAMMKAWDARASYQMGTNMKAWTFMILRNQFY: not satisfied
HMESVTETFLTNLINRYIADKAGYIISYPSEYRIEVLYHGGQVLDYENLRKSINTYIPAHIGYKLVTI: satisfied
HMRVPTVIGMDEGTAKATLANASLKSNIVYESDETKENGKVLSQGIEQNKEVKAGTTVEIKVNKIE: satisfied

Q: Does the sequence `HMNTSSVTVHYQDEAGKSLADTVTLTGKVGETYSSEQKKITGYNFKEVRGNPKGQFTTEAQTVTYVYTQAA` have recorded soluble fraction (log2) that is -0.4 or more?
A: satisfied

Q: Does the sequence `HMAKLGITQREQEVLQLLVTGKTYKEIAAELFISLPTVKTHVSNIYSKAKVRNRLELSNLINYI` have recorded soluble fraction (log2) that is -0.4 or more?
A: not satisfied

Q: Does the sequence `HMKPPTIELSYSEFIELVERGKVSKVIFSSDNYTLKGETVNGENFETVRPPFLEDNLSEILTIHKVPVSSE` have recorded soluble fraction (log2) that is -0.4 or more?
A: satisfied

Q: Does the sequence `HMEDINAVLAENLRRLRESRRLSLDAVARLTGVSKSMLGQIERGEVNPTVSTMWKIAGGLKVNFTALFRRE` have recorded soluble fraction (log2) that is -0.4 or more?
A: not satisfied

Q: Does the sequence `HMANFGSILRNLRISRDITQSELAAKLGVSRSTVGMYETGAREPDFEAMEAIADTFNVDMDYLVGRSQ` have recorded soluble fraction (log2) that is -0.4 or more?
A: satisfied

Q: Does the sequence `HMRQSKMREAILAAVSAQKLEISDLHVWRIGEQRYAAIIGLATTQAESVSALRDSLAQMDKLVHLTIDQ` have recorded soluble fraction (log2) that is -0.4 or more?
A: not satisfied

Q: Does the sequence `HMENIIKISASYEGLRVDQFLSNYLKISRSKVQKYISEEKIFLNNVPTKTNRKVKLDDIISYNLNF` have recorded soluble fraction (log2) that is -0.4 or more?
A: not satisfied

Q: Does the sequence `HMGQLVVHQIKGEASRLDKFLVVNIPKYSRSVWREMINNGSVQVNGRVVKPHLLVKEGDIITWSS` have recorded soluble fraction (log2) that is -0.4 or more?
A: satisfied

Q: Does the sequence `HMFMMVAGHLQIKNEKYYMVLELRTEQGERKTKWIGTGLAVKGNKRRAEAMLEETRTKYLSPV` have recorded soluble fraction (log2) that is -0.4 or more?
A: not satisfied

Q: Does the sequence `HMWVETITTKAGITKYKFQERYTDTYSGKTKRVSVTYTSNSRQAYKLAQAELQKKIDLATNTD` have recorded soluble fraction (log2) that is -0.4 or more?
A: not satisfied

Q: Does the sequence `HMSNLLKNILDVLEKEGPLKARKIALLLDSTRTTITHTTINSELYKALDLEGLTKNEQNIWSYVT` have recorded soluble fraction (log2) that is -0.4 or more?
A: satisfied

Q: Does the sequence `HMGTNTTGWIKIADDWKYIDSNGEYTVNDWRQSADGGWYYLGYNGNMLKNQTTPDGYYVDAEGLWDGMSPA` have recorded soluble fraction (log2) that is -0.4 or more?
A: not satisfied
